// provenance: patent US6469034B1

Listing of entries alongside the reported CC50.
assay details: Microculture tetrazolium assay (MTA, XTT) for cytotoxicity
Type: cell-based
applied conditions: cytotoxicity, XTT
measured property: CC50

compound	measured property	experimental result
Cc1ccnc2c1NC(=O)c1cccnc1N2C1CC1 [Nevirapine, reference compound]	CC50	10.5 µM
S=C(NCCc1ccccn1)Nc1ccc(Br)cn1 [Trovirdine, reference compound]	CC50	> 100 µM
CCOCn1c(Cc2ccccc2)c(C(C)C)c(=O)[nH]c1=O [MKC-442, reference compound]	CC50	> 100 µM
S=C(NCCC1=CCCCC1)Nc1ccc(Br)cn1 [HI-346]	CC50	> 100 µM
FC(F)(F)c1ccc(NC(=S)NCCC2=CCCCC2)nc1 [HI-347]	CC50	> 100 µM
